This collection of values is drawn from PubChem BioAssay.

TEST_DESCRIPTION: modulators of S6 phosphorylation in cells, primary screen, cell-based, A549, cytoblot, luminescence, serum-stimulated (AID 1158);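 note: serum-stimulated A549 lung adenocarcinoma cells; signal is phosphorylated S6 detected by cytoblot immunostaining with HRP secondary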
CONDITION_DESCRIPTION: A549 phospho-S6 cytoblot, 5 h, higher = more signal
Response key: true means z-score >= -0.3; false means z-score < -0.3.

Consider the worked cases shown below.
COMPOUND: COC(=O)CC=C[C@@H](C)[C@@H](C=NOC(C)CN1CCCCc2nc(C)c(C)cc21)OC (stereo partly drawn)
CATEGORY: false
//
COMPOUND: CO[C@H]1COC(=O)[C@H](CCSC)NC(=O)CC=C[C@@H](C)[C@H](OC)COC(=O)[C@@H](OCc2ccccc2)C=C[C@@H]1C
CATEGORY: false
//
COMPOUND: CC1(C)O[C@H]2OC([C@H](O)CON3C(=O)c4ccccc4C3=O)[C@H](O)[C@H]2O1 (stereo partly drawn)
CATEGORY: false

Test whether the compound CON=C(C)CCN1CCc2nc(-c3ccccc3)c(-c3ccccc3)cc2C1 records z-score of -0.3 or higher.
true

Quick one: CCN1C(=O)[C@H]2[C@H]3[C@H](O)[C@H](O)CC(=NO[C@H](C)c4cn([C@@H]5COC[C@H]5O)nn4)[C@@H]3CC[C@H]2C1=O
false

* * *

TEST_DESCRIPTION: small-molecule binders of probe aNOTCH3, primary screen, biochemical, small-molecule microarray, 635/667 nm fluorescence (AID 1120);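 note: probe is a biotin-tagged antibody raised against NOTCH3 rather than NOTCH3 protein; score merges spot fluorescence near 667 nm with spot signal to noise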
CONDITION_DESCRIPTION: higher = more signal
OBSERVED_PROPERTY: composite z-score
Respond numerically, and do not add a unit to the figure.

Example cases with answers are listed next.
COMPOUND: COCC#Cc1ccc([C@@H]2N[C@H](C(=O)O)CC[C@H]2C)cc1
composite z-score: -0.0605

COMPOUND: O=C1[C@H]2[C@H]3[C@H](O)[C@H](O)CC(=NO[C@@H]4O[C@H](CO)[C@@H](O)[C@H](O)[C@H]4O)[C@@H]3CC[C@H]2C(=O)N1C[C@@H]1CCCO1
composite z-score: -0.243

COMPOUND: CC(CCC(=O)OC[C@H]1O[C@H](C#Cc2ccccc2)C=C[C@@H]1Oc1ccc(C)cc1)=NO[C@H](C)c1cn([C@@H]2COC[C@H]2O)nn1
composite z-score: -0.0697

COMPOUND: O=C1CCCC=C1C(O)COCc1ccccc1 (stereo not drawn)
composite z-score: -0.154

Need composite z-score of O=C(NN=C1C[C@@H](O)[C@@H](O)[C@@H]2[C@@H]3C(=O)N(Cc4ccccc4)C(=O)[C@@H]3CC[C@H]12)OCc1ccccc1 , thanks.
-0.118

Also need CCOC(=O)[C@H](CC(C)C)NC(=O)CCC1CC(OC(=O)NCCc2ccc(F)cc2)CC2(CCCC(COC(=O)NCCCN3CCCC3=O)O2)O1 (stereo partly drawn) , thanks.
-0.179

Would you mind doing COC(=O)[C@@H]1CC[C@H](C)[C@@H](c2ccc(Br)cc2)N1C(=O)C(F)(F)F as well?
-0.232

Now the compound CO[C@@H]1COC(=O)CC=C[C@H](C)[C@H](OC)COC(=O)[C@@H]2CCCN2C(=O)CC=C[C@H]1C
-0.116

* * *

TEST_DESCRIPTION: E. coli acrAB mutant growth effects, primary screen, E. coli filamentation inducers, strain DRC39, OD650, 24 h (AID 1178);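 note: growth measured as culture turbidity by optical density at 650 nm; test concentration not given here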
CONDITION_DESCRIPTION: higher = more signal, called active from +8 up or from −8 down
The source made the active and inactive calls.
OBSERVED_PROPERTY: z-score

COMPOUND: CC(C)[C@H](NC(=O)OC(C)(C)C)[C@@H](O)CC(=O)C(C)(C)C
z-score: 0.599 (inactive)
--
COMPOUND: C[C@H]1CC[C@H]2C(=O)O[C@H](CO)CN2[C@@H]1c1ccc(Br)cc1
z-score: 0.342 (inactive)
--
COMPOUND: O=C1[C@H]2CCn3c(=O)n(Cc4cc5c(cc4Cl)OCO5)c(=O)n3[C@H]2[C@H](O)[C@@H]2O[C@H]12
z-score: 0.552 (inactive)
--
COMPOUND: CO[C@@H]1COC(=O)CC=C[C@H](C)[C@H](OC)COC(=O)[C@@H]2CCCN2C(=O)CC=C[C@H]1C
z-score: 0.422 (inactive)
--
COMPOUND: COc1ccc(COC(=O)NN=C2C[C@@H](O)[C@@H](O)[C@@H]3[C@@H]4C(=O)N(Cc5ccccc5)C(=O)[C@@H]4CC[C@@H]23)cc1
z-score: 0.918 (inactive)
--
COMPOUND: CC(=O)OC[C@H]1O[C@H](C#CCC2CCCCC2)C=C[C@@H]1OC(C)=O
z-score: 1.07 (inactive)
--
COMPOUND: CO[C@H]1COC(=O)CCC[C@H](C)[C@@H](OC)COC(=O)CC=C[C@@H]1C
z-score: 0.42 (inactive)
--
COMPOUND: COc1ccc(OC[C@@H](CO)OC)cc1
z-score: 0.293 (inactive)
--
COMPOUND: COc1ccc(O[C@H]2C=C[C@@H](c3ccccc3)O[C@@H]2CO)cc1
z-score: 0.137 (inactive)
--
COMPOUND: CC(C)=NO[C@@H](C)c1cn([C@H](CO)Cc2ccccc2)nn1
z-score: 0.0116 (inactive)

z-score lookup needed for CCOC(=O)[C@H](CC(C)C)NC(=O)CCC1CC(OC(=O)NCc2ccc3c(c2)OCO3)CC2(CCCC(COC(=O)NCCC(C)C)O2)O1 (stereo partly drawn) , thanks.
1 (inactive)

What would you report for COC(=O)[C@@H]1CC[C@H](C)[C@@H](c2ccc(Br)cc2)N1C[C@@H](O)CN=[N+]=[N-] ?
-1.47 (inactive)

Moving on to the next compound: CN1CCc2nc(-c3ccccc3)c(-c3ccccc3)cc2C1
0.38 (inactive)

* * *

TEST_DESCRIPTION: small-molecule binders of probe aInhba, primary screen, biochemical, small-molecule microarray, 635/667 nm fluorescence (AID 1148);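 note: score merges 667nm spot fluorescence with signal-to-noise for antibody binding to printed compounds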
CONDITION_DESCRIPTION: higher = more signal
Use -0.09 as the dividing line for composite z-score, with the line itself on the satisfied side and lower values as not satisfied.

COMPOUND: CCCNC(=O)OC[C@H]1O[C@H](CCON=C[C@@H](C)[C@H](OCc2ccccc2)C(C)C)C=C[C@@H]1Oc1ccc(OC)cc1
CATEGORY: not satisfied

Identify whether the reported composite z-score of the following compound is -0.09 or greater: CCc1cc2c(nc1CC)CCN(CCC(C)=NOCC[C@@H]1C=C[C@H](OC(C)=O)[C@@H](COC(C)=O)O1)C2
satisfied

Now consider CCOC(=O)CCN1C(=O)[C@H]2[C@H]3[C@H](O)[C@H](O)CC(=NOCC=C(C)CCC=C(C)C)[C@H]3CC[C@H]2C1=O .
satisfied

Then what about the compound CON=C(C)CCC(=O)OC[C@H]1O[C@H](C#Cc2ccccc2)C=C[C@@H]1Oc1ccc(C)cc1 ?
satisfied

Same question for C[C@@H]1CC[C@H]2C(=O)N3[C@@H](CC[C@@H](C)[C@@H]3c3ccc(Br)cc3)C(=O)N2[C@H]1c1ccc(Br)cc1 please.
satisfied

Param item: CC(=O)OC[C@H]1O[C@H](CC=NOC[C@@H](O)COCc2ccco2)C=C[C@@H]1OC(C)=O
not satisfied

Item: COc1ccc(O[C@H]2C=C[C@@H](c3ccccc3)O[C@@H]2COC(=O)NCc2cccc3ccccc23)cc1
not satisfied

Can you check CCOC(=O)CCN1C(=O)[C@H]2[C@H]3[C@H](O)[C@H](O)CC(=NO[C@@H]4O[C@H](CO)[C@@H](O)[C@H](O)[C@H]4O)[C@H]3CC[C@H]2C1=O next?
satisfied

What do we get for CCN1C(=O)[C@H]2[C@H]3[C@H](O)[C@H](O)CC(=NOCC(C)C)[C@H]3CC[C@H]2C1=O ?
satisfied

And what about the compound CCCCOC(OCCCC)C(O)CSc1ccc2ccccc2c1 (stereo not given) ?
not satisfied

Same question for C[C@@H]1C=CCC(=O)OC[C@H](C)C(=O)N[C@@H](Cc2ccccc2)C(=O)OC1 please.
satisfied

# repeat for CCOC(=O)CCN1C(=O)[C@H]2[C@H]3[C@H](O)[C@H](O)CC(=NNC(=O)OCc4ccccc4)[C@H]3CC[C@H]2C1=O
satisfied

Also check COC(=O)CC=C[C@@H](C)[C@@H](C=NOC[C@@H](O)[C@H]1O[C@@H]2OC(C)(C)O[C@@H]2[C@H]1O)OC
not satisfied

* * *

TEST_DESCRIPTION: PSAC antagonists in infected red cells, primary screen, cell-based, P. falciparum Indochina, OD700, 2 h (AID 1155);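 note: lysis reports solute entry through the parasite surface anion channel PSAC; channel blockers reduce lysis of infected cells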
CONDITION_DESCRIPTION: P. falciparum Indochina infected erythrocytes, osmotic lysis OD700; higher = more signal, called active from +8 up or from −8 down
Returns y if the recorded z-score is greater than or equal to 0.2, and n otherwise.

Here's what some known entries look like.
COMPOUND: CCOC(=O)[C@H](Cc1ccccc1)NC(=O)CCC1CC(OC(=O)NCCc2ccc(F)cc2)CC2(CCCC(COC(=O)NCc3cccc(C(F)(F)F)c3)O2)O1 (some centres not stated)
CATEGORY: y
//
COMPOUND: CC(C)=NO[C@H](C)c1cn([C@@H]2COC[C@H]2O)nn1
CATEGORY: y
//
COMPOUND: CCOC(=O)[C@H](Cc1ccccc1)NC(=O)CCC1CC(OC(=O)NCc2cccc3ccccc23)CC2(CCCC(COC(=O)NCC3CCCCC3)O2)O1 (some centres not stated)
CATEGORY: n
//
COMPOUND: C#CCCCON=C1C[C@@H](O)[C@@H](O)[C@@H]2[C@@H]3C(=O)N([C@@H](C)c4ccccc4)C(=O)[C@@H]3CC[C@@H]12
CATEGORY: n
//
COMPOUND: CC(C)CON=C1[C@H]2CCn3c(=O)n(C)c(=O)n3[C@H]2[C@H](O)[C@@H]2O[C@H]12
CATEGORY: n
//
COMPOUND: COc1ccc(COC(=O)NN=C2C[C@@H](O)[C@@H](O)[C@@H]3[C@@H]4C(=O)N(C5CCCCC5)C(=O)[C@@H]4CC[C@@H]23)cc1
CATEGORY: y

Proceed to the following item.
Is the recorded value of z-score equal to or greater than 0.2 for this compound? COc1ccc(COC(=O)NN=C2C[C@@H](O)[C@@H](O)[C@@H]3[C@@H]4C(=O)N(c5cccc(Oc6ccccc6)c5)C(=O)[C@@H]4CC[C@H]23)cc1
n
